Quick reference for phosphorylation enrichment among some sequences
test system: AncSZ; experiment: phosphorylation enrichment, bacterial display (enrichment ratio); higher = better substrate or ligand; peptides without Tyr show the background;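 note: 11-residue human phosphosite peptides and single-mutation variants displayed on the E. coli surface, counted by deep sequencing, each peptide's frequency after selection divided by its frequency in the unselected input library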;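 note: frequency after pTyr selection over input frequency; kinase dosed for 20-30% of maximal phosphorylation in three min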
Parameter: phosphorylation enrichment

- Seq Text: "SMAKYYASGIA [ACADSB_Y373_E376G]"
  System: "AncSZ"
  Parameter: "phosphorylation enrichment"
  Measured Value: 0.497
- Seq Text: "MAPQMYESHLP [NCAPD2_Y6_F8S]"
  System: "AncSZ"
  Parameter: "phosphorylation enrichment"
  Measured Value: 0.501
- Seq Text: "PSSNLYFRCLT [CNGA3_Y168_W171C_YF]"
  System: "AncSZ"
  Parameter: "phosphorylation enrichment"
  Measured Value: 1.5
- Seq Text: "RQAQAYRGQRV [TSHR_Y706]"
  System: "AncSZ"
  Parameter: "phosphorylation enrichment"
  Measured Value: 1.82
- Seq Text: "TTICKYITPME [GUCY2C_Y839_S840I]"
  System: "AncSZ"
  Parameter: "phosphorylation enrichment"
  Measured Value: 0.99
- Seq Text: "NPQKPYFIRLF [WAS_Y83_S82P_YF]"
  System: "AncSZ"
  Parameter: "phosphorylation enrichment"
  Measured Value: 1.17
- Seq Text: "NGTVSYAIVAG [CDH23_Y1672_T1671S]"
  System: "AncSZ"
  Parameter: "phosphorylation enrichment"
  Measured Value: 0.778
- Seq Text: "YIILIYAMKKK [SLCO1B1_Y645]"
  System: "AncSZ"
  Parameter: "phosphorylation enrichment"
  Measured Value: 0.588
- Seq Text: "CVAARYMDVKG [WFIKKN2_Y93]"
  System: "AncSZ"
  Parameter: "phosphorylation enrichment"
  Measured Value: 0.655
- Seq Text: "VIKDKYPQARY [APTX_Y209_K211Q]"
  System: "AncSZ"
  Parameter: "phosphorylation enrichment"
  Measured Value: 0.498
- Seq Text: "ARVANYHRDGP [CAT_Y386_Q387H]"
  System: "AncSZ"
  Parameter: "phosphorylation enrichment"
  Measured Value: 0.523
- Seq Text: "TEGNGYISFNE [LCP1_Y28_D24E]"
  System: "AncSZ"
  Parameter: "phosphorylation enrichment"
  Measured Value: 1.09
- Seq Text: "KRAIGYYSATS [FAM120A_Y327]"
  System: "AncSZ"
  Parameter: "phosphorylation enrichment"
  Measured Value: 0.477
- Seq Text: "DGSALYTGSAL [COL6A3_Y524]"
  System: "AncSZ"
  Parameter: "phosphorylation enrichment"
  Measured Value: 0.612

----------
target: Grb2 SH2 (UniProt P62993); assay: SH2 binding enrichment of the phosphorylated peptide, bacterial display (enrichment ratio); higher = better substrate or ligand; peptides without Tyr show the background
Sequence (P62993 whole entry, looked up): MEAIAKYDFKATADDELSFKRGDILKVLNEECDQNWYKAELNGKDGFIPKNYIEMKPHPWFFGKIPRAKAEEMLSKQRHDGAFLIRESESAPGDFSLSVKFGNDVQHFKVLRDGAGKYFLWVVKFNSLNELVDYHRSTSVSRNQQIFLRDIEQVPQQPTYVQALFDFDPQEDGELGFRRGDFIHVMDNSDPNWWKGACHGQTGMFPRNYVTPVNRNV
Recorded SH2 binding enrichment values for a group of sequences are listed next.
Parameter: SH2 binding enrichment

- Seq Text: "CRAVKYLQMVR [AVPR2_Y117_G122R]"
  System: "Grb2 SH2 (UniProt P62993)"
  Parameter: "SH2 binding enrichment"
  Measured Value: 1.01
- Seq Text: "KDIENYIQDGK [RAD50_Y964]"
  System: "Grb2 SH2 (UniProt P62993)"
  Parameter: "SH2 binding enrichment"
  Measured Value: 0.979
- Seq Text: "PAEPRYRARQR [KCNJ11_Y26]"
  System: "Grb2 SH2 (UniProt P62993)"
  Parameter: "SH2 binding enrichment"
  Measured Value: 0.675
- Seq Text: "SMAKYYASGIA [ACADSB_Y373_E376G]"
  System: "Grb2 SH2 (UniProt P62993)"
  Parameter: "SH2 binding enrichment"
  Measured Value: 0.771
- Seq Text: "PIYEGYALPHA [ACTA1_Y171]"
  System: "Grb2 SH2 (UniProt P62993)"
  Parameter: "SH2 binding enrichment"
  Measured Value: 0.72
- Seq Text: "GHLFAYNWISI [BEST1_Y227_D228N_YF]"
  System: "Grb2 SH2 (UniProt P62993)"
  Parameter: "SH2 binding enrichment"
  Measured Value: 0.993
- Seq Text: "LSIDRYHAIVY [NPSR1_Y147]"
  System: "Grb2 SH2 (UniProt P62993)"
  Parameter: "SH2 binding enrichment"
  Measured Value: 1.25
- Seq Text: "DFPIGYPSYLA [TBCK_Y153]"
  System: "Grb2 SH2 (UniProt P62993)"
  Parameter: "SH2 binding enrichment"
  Measured Value: 0.9
- Seq Text: "NTEGGYCCICA [CRELD1_Y328_R329C]"
  System: "Grb2 SH2 (UniProt P62993)"
  Parameter: "SH2 binding enrichment"
  Measured Value: 0.704
- Seq Text: "YIILIYAMKKK [SLCO1B1_Y645]"
  System: "Grb2 SH2 (UniProt P62993)"
  Parameter: "SH2 binding enrichment"
  Measured Value: 2.34
- Seq Text: "SGDITYGQFAQ [PLCG1_Y210]"
  System: "Grb2 SH2 (UniProt P62993)"
  Parameter: "SH2 binding enrichment"
  Measured Value: 0.716
- Seq Text: "GVYSRYFTTYD [CLCA1_Y661]"
  System: "Grb2 SH2 (UniProt P62993)"
  Parameter: "SH2 binding enrichment"
  Measured Value: 0.944
- Seq Text: "KAWTIYRPEDS [ZBP1_Y165]"
  System: "Grb2 SH2 (UniProt P62993)"
  Parameter: "SH2 binding enrichment"
  Measured Value: 0.746
- Seq Text: "APQFTYTQGGQ [FLNA_Y1763_A1764T_YF]"
  System: "Grb2 SH2 (UniProt P62993)"
  Parameter: "SH2 binding enrichment"
  Measured Value: 0.75
